List of pIC50 tested on 72 kDa type IV collagenase (Homo sapiens, UniProt P08253).
Sequence (P08253 whole entry): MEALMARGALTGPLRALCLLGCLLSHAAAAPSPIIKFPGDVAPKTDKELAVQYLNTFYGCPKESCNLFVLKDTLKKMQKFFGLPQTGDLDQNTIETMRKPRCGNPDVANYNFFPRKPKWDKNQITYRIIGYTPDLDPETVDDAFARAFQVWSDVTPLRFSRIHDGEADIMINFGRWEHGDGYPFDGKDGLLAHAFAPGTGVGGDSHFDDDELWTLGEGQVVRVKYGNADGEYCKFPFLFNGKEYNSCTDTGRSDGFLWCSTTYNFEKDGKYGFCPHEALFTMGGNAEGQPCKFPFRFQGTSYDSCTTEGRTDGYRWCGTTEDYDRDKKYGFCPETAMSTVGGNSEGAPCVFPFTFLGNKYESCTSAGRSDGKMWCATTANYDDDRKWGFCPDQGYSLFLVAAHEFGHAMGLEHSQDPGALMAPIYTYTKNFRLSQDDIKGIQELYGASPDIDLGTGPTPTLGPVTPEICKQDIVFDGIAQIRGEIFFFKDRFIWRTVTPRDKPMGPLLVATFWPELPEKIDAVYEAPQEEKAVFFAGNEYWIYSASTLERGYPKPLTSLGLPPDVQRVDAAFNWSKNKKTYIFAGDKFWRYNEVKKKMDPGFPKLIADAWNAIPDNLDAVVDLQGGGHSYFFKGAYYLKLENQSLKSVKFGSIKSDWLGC
pIC50: −log10 of the molar value.

- RECORD SMILES: "CS(=O)(=O)N[C@@H](Cc1ccc(OCCc2ccccc2)cc1)C(=O)NO"
  pIC50: 7.54
- RECORD SMILES: "Cc1ccc(C(=O)N[C@@H](Cc2ccc(OCCc3ccccc3)cc2)C(=O)NO)cc1"
  pIC50: 5.41
- RECORD SMILES: "Cc1ccc(C(=O)N[C@@H](Cc2ccc(OCc3ccccc3)cc2)C(=O)NO)cc1"
  pIC50: 6.34
- RECORD SMILES: "O=C(N[C@@H](Cc1ccc(OCc2ccccc2)cc1)C(=O)O)c1ccccc1"
  pIC50: 5.01
- RECORD SMILES: "COC(=O)[C@H](Cc1ccc(OCc2ccccc2)cc1)NC(=O)c1ccc(C)cc1"
  pIC50: 4.08
- RECORD SMILES: "Cc1ccc(C(=O)N[C@@H](Cc2ccc(OCc3ccccc3)cc2)C(=O)O)cc1"
  pIC50: 5.09
- RECORD SMILES: "COC(=O)[C@H](Cc1ccc(OCCc2ccccc2)cc1)NC(=O)c1ccc(C)cc1"
  pIC50: 4.07
- RECORD SMILES: "Cc1ccc(S(=O)(=O)N[C@@H](Cc2ccc(OCCc3ccccc3)cc2)C(=O)O)cc1"
  pIC50: 6.57
- RECORD SMILES: "CC(=O)N[C@@H](Cc1ccc(OCCc2ccccc2)cc1)C(=O)NO"
  pIC50: 7.89
- RECORD SMILES: "CC(=O)N[C@@H](Cc1ccc(OCc2ccccc2)cc1)C(=O)O"
  pIC50: 5.52
- RECORD SMILES: "CS(=O)(=O)N[C@@H](Cc1ccc(OCc2ccccc2)cc1)C(=O)NO"
  pIC50: 7.17
- RECORD SMILES: "Cc1ccc(S(=O)(=O)N[C@@H](Cc2ccc(OCc3ccccc3)cc2)C(=O)NO)cc1"
  pIC50: 7.60
- RECORD SMILES: "CC(=O)N[C@@H](Cc1ccc(OCc2ccccc2)cc1)C(=O)NO"
  pIC50: 7.43
- RECORD SMILES: "O=C(N[C@@H](Cc1ccc(OCCc2ccccc2)cc1)C(=O)NO)c1ccccc1"
  pIC50: 6.05
- RECORD SMILES: "COC(=O)[C@H](Cc1ccc(OCc2ccccc2)cc1)NS(C)(=O)=O"
  pIC50: 4.75

----------
Molecular target: Histone deacetylase 8 (Homo sapiens, UniProt Q9BY41)
Sequence (Q9BY41 whole entry): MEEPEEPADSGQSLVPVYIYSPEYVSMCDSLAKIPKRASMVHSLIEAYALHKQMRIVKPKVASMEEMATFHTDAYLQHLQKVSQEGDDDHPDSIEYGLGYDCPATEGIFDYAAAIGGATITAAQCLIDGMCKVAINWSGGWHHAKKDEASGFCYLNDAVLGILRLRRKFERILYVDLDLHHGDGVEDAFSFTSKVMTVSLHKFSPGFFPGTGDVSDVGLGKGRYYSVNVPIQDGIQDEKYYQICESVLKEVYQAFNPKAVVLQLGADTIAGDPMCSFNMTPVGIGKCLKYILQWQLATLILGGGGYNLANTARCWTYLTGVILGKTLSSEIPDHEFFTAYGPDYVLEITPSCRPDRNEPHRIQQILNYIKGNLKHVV
Readings of IC50 for the listed compounds
VALUE TYPE: IC50

- RECORD SMILES: "COC(=O)[C@H](Cc1ccc(OCc2ccccc2)cc1)NS(=O)(=O)c1ccc(C)cc1"
  REPORTED MEASUREMENT: "> 1000 µM"
- RECORD SMILES: "CC(=O)N[C@@H](Cc1ccc(OCc2ccccc2)cc1)C(=O)NO"
  REPORTED MEASUREMENT: "5.8 µM"
- RECORD SMILES: "COC(=O)[C@H](Cc1ccc(OCCc2ccccc2)cc1)NS(C)(=O)=O"
  REPORTED MEASUREMENT: "> 1000 µM"
- RECORD SMILES: "CS(=O)(=O)N[C@@H](Cc1ccc(OCc2ccccc2)cc1)C(=O)O"
  REPORTED MEASUREMENT: "47.2 µM"

Provenance of the data: ChEMBL document CHEMBL2146396
